B1: DNA-binding protein HU, P0A3H0 (parent)
chain: MNKTELINAVAETSGLSKKDATKAVDAVFDSITEALRKGDKVQLIGFGNFEVRERAARKGRNPQTGEEMEIPASKVPAFKPGKALKDAVK

- Variants of: B1
- condition-label: Geobacillus stearothermophilus; pH 7; Thermal; CD; Sodium phosphate 5 mM; NaCl 0.2 M; reversible: yes; structure 1HUE; whole UniProt chain shown
Entries and their unfolding enthalpy (van 't Hoff)
Please reply with the bare figure in kcal/mol and do not write the unit itself.

Example entries and their recorded answers appear below.
# mutation-list, unit-string, unfolding enthalpy (van 't Hoff)
data = [
    ("S31T", "kcal/mol", 81.1),
    ("A56S", "kcal/mol", 83),
    ("M69I", "kcal/mol", 79.2),
    ("V42I", "kcal/mol", 54.7),
]

Turning now to a further record.
For record A27S the listed unfolding enthalpy (van 't Hoff) is 76.5
